Every entry's value here was drawn from patent US20130273029A1.

target: Human HER3, endogenous, on human cancer cell lines (SK-Br-3, MCF7, BT-474) (human, UniProt P21860 20-1342); test: cell-based or functional assay
Sequence (P21860 20-1342): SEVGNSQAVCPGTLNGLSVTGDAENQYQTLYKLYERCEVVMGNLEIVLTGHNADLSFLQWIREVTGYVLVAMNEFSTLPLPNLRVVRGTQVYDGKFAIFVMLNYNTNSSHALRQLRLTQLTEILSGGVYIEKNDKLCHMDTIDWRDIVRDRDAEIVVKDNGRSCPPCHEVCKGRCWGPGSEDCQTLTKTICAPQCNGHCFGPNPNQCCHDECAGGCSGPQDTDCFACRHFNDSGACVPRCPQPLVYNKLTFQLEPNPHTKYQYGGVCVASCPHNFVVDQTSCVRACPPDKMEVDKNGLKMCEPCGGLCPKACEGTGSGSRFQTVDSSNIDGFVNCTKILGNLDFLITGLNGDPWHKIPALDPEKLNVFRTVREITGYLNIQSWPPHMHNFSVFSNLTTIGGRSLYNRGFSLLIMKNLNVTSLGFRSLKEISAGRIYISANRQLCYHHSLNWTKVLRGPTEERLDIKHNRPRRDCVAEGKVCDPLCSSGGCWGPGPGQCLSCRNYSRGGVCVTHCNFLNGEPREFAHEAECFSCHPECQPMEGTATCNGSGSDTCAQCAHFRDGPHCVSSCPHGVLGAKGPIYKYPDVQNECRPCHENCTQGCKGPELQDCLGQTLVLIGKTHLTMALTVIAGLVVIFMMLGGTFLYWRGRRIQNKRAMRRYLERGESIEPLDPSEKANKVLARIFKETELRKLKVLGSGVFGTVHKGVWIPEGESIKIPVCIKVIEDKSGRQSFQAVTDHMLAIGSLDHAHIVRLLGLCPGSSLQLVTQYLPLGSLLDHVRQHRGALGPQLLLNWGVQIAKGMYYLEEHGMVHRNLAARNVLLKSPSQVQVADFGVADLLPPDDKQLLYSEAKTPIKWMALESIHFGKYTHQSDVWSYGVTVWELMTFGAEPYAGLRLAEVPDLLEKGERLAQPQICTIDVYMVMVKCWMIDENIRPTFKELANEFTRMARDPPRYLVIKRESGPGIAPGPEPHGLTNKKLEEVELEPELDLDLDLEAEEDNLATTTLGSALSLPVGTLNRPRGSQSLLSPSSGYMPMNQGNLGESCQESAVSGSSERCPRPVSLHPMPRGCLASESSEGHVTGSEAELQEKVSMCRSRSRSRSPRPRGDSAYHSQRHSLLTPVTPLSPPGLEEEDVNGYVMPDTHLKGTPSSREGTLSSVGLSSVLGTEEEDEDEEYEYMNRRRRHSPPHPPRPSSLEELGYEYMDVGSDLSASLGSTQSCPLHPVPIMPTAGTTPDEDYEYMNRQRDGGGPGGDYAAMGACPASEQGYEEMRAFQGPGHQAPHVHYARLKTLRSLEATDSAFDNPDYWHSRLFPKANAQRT
Quantity Kind: SK-Br-3 pHER3 IC50

* MOR14536 (antibody, human IgG1, kappa, V domains shown, tested as IgG) VH: EVQLVQSGAEVKKPGESLKISCKGSGYSFSNYWIAWVRQMPGKGLEWMGIIYPGQSDTIYSPSFQGQVTISADKSISTAYLQWSSLKASDTAMYYCARVHIIQPPSAWSYNAMDVWGQGTLVTVSS VL: DIQMTQSPSSLSASVGDRVTITCRASQSISTYLNWYQQKPGKAPKLLIYGASNLQSGVPSRFSGSGSGTDFTLTISSLQPEDFATYYCQQSITELFTFGQGTKVEIKR | 239 pM
* MOR12924 (antibody, human IgG1, kappa, V domains shown) VH: QVQLVQSGAEVKKPGESLKISCKGSGYSFTNSWVAWVRQMPGKGLEWMGIIYPGNSDTIYSPSFQGQVTISADKSISTAYLQWSSLKASDTAMYYCARVHIIQPPSAWSYNAMDVWGQGTLVTVSS VL: DIQMTQSPSSLSASVGDRVTITCRASQSISTYLNWYQQKPGKAPKLLIFGASNLQSGVPSRFSGSGSGTDFTLTISSLQPEDFATYYCQQSVWEPATFGQGTKVEIKR | 123 pM
* MOR13755 (antibody, human IgG1, kappa, V domains shown, tested as IgG) VH: QVQLVQSGAEVKKPGESLKISCKGSGYSFTTYWVAWVRQMPGKGLEWMGIIYPGQSDTIYSPSFQGQVTISADKSISTAYLQWSSLKASDTAMYYCARVHIIQPPSAWSYNAMDVWGQGTLVTVSS VL: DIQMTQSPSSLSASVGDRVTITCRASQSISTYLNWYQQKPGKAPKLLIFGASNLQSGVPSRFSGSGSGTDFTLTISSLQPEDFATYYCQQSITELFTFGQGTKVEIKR | 217 pM
